# System: Fibroblast
# PROCEDURE DETAILS: Multiplex assay against human fibroblast
# Format: toxicity, cell-based
# EXPERIMENTAL CONTEXT: 24 h, 1 µM, compound concentration 1 uM, replicate 2
Rule for this label: 1 means Population Tubulin-Different-Phenotype (%) is less than 50%; 0 means Population Tubulin-Different-Phenotype (%) is at least 50%.

| COMPOUND | ASSIGNED LABEL |
| --- | --- |
| CN1CCC(C(=O)c2cccc(NC(=O)c3c(F)cc(F)cc3F)n2)CC1 | 1 |

In: Would you kindly verify if Population Tubulin-Different-Phenotype (%) of O=C(NCCNCC(O)COc1ccc(O)cc1)N1CCOCC1.O=C(NCCNCC(O)COc1ccc(O)cc1)N1CCOCC1.O=C(O)/C=C/C(=O)O (stereo not drawn) [XAMOTEROL FUMARATE] is strictly less than 50%?
Out: 0

In: Criterion: Population Tubulin-Different-Phenotype (%) strictly below 50%. Is it met by Cc1c(Cc2ccc3ccccc3n2)c2cc(F)ccc2n1CC(=O)O ?
Out: 1

In: Threshold test, Population Tubulin-Different-Phenotype (%) < 50%: CCn1c(-c2nc3cc(C(=O)N4CCCC(N)C4)ccc3n2C)cc2ccccc21.Cl (stereo not drawn)
Out: 1

In: For COc1cc(Nc2ncc3c(n2)-c2ccc(Cl)cc2C(c2c(F)cccc2OC)=NC3)ccc1C(=O)O , is the recorded Population Tubulin-Different-Phenotype (%) below the cut-off of 50%?
Out: 1

In: Given the entry Cc1cc(NC(=O)NCCN2CCC(O)(Cc3ccccc3)CC2)c2ccccc2n1 , would its reported Population Tubulin-Different-Phenotype (%) be below 50%?
Out: 0

In: Dear reviewer, please state whether Cl.Cl.OCCOCCN1CCN(C(c2ccccc2)c2ccc(Cl)cc2)CC1 (stereo not drawn) [HYDROXYZINE HYDROCHLORIDE] has Population Tubulin-Different-Phenotype (%) strictly beneath 50%.
Out: 1
